- Test system: PPARg DBDmut IVT, anti-PPARg (DBD mutation: PPARg1 K132A/R137A, NR concentration 270 nM)
- measurement-description: PBM binding z-score (relative to random genomic background probes); higher = stronger binding; sequences stand for … in GC…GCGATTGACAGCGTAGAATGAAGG
assay-endpoint: PBM binding z-score

Endpoint output: PBM binding z-score of "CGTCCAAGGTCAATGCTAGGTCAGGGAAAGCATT" . Value? -0.912

Endpoint output: PBM binding z-score of "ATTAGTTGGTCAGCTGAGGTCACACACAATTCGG" . Value? 1.49

Endpoint output: PBM binding z-score of "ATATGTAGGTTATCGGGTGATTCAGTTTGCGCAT" . Value? 2.24

Endpoint output: PBM binding z-score of "AATACAGGGGCACTAGGCCAGAGTAGGTACGAAT" . Value? 0.38

Endpoint output: PBM binding z-score of "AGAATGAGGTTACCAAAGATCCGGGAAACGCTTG" . Value? 0.35

Endpoint output: PBM binding z-score of "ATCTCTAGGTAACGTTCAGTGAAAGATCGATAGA" . Value? 1.73

Endpoint output: PBM binding z-score of "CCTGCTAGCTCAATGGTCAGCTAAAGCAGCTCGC" . Value? -1.42

Endpoint output: PBM binding z-score of "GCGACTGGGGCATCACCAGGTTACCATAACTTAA" . Value? -0.785

Endpoint output: PBM binding z-score of "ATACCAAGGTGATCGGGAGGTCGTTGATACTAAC" . Value? 0.179

Endpoint output: PBM binding z-score of "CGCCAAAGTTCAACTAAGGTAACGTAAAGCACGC" . Value? 0.253

Endpoint output: PBM binding z-score of "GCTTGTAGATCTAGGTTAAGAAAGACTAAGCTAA" . Value? 0.399

Endpoint output: PBM binding z-score of "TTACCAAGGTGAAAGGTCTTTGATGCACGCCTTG" . Value? 0.356

Endpoint output: PBM binding z-score of "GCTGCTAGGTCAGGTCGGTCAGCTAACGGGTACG" . Value? -0.563

Endpoint output: PBM binding z-score of "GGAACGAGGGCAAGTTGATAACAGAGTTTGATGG" . Value? 0.0422

Endpoint output: PBM binding z-score of "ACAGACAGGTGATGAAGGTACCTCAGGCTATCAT" . Value? 0.042

Endpoint output: PBM binding z-score of "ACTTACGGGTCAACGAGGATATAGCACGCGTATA" . Value? 1.58

Endpoint output: PBM binding z-score of "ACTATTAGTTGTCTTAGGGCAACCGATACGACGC" . Value? 1.18

Endpoint output: PBM binding z-score of "GATACAGGGTCAGCTAGAGGCCTGAGTATGGAAA" . Value? -0.805

Endpoint output: PBM binding z-score of "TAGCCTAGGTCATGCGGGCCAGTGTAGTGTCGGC" . Value? -0.723

Endpoint output: PBM binding z-score of "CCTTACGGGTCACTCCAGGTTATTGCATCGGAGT" . Value? 1.01

Endpoint output: PBM binding z-score of "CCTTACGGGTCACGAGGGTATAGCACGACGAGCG" . Value? 0.0491

Endpoint output: PBM binding z-score of "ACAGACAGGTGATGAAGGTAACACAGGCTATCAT" . Value? 0.414

Endpoint output: PBM binding z-score of "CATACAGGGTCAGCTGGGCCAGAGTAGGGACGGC" . Value? 0.292

Endpoint output: PBM binding z-score of "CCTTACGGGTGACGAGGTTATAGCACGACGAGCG" . Value? -0.275

Endpoint output: PBM binding z-score of "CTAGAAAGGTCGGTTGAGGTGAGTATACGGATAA" . Value? 0.00122

Endpoint output: PBM binding z-score of "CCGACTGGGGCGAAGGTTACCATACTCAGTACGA" . Value? -0.462

Endpoint output: PBM binding z-score of "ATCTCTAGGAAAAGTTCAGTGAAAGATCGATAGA" . Value? 0.44

Endpoint output: PBM binding z-score of "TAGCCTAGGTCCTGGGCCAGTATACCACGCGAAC" . Value? -1.32

Endpoint output: PBM binding z-score of "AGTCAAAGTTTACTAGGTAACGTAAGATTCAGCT" . Value? 0.737

Endpoint output: PBM binding z-score of "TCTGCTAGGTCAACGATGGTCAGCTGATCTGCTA" . Value? 1.17

Endpoint output: PBM binding z-score of "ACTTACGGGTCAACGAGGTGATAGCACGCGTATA" . Value? 1.22
